Ref: patent US20030236212A1

# Tested on: obese female Zucker rats
# Test description: Oral daily treatment of obese female Zucker rats for 14 days (body weight, serum lipids, glucose, insulin)
# Format: in vivo, rat
# Conditions: Rattus norvegicus, 336 h; obese female Zucker rats, oral daily, fourteen days, 100 mg/kg/day; read-out: NEFA, Percent Change from Pre-treatment

- Compound: "CC(C)(CCCCC(=O)CCCCC(C)(C)COP(=O)(O)O)COP(=O)(O)O.N.N [Compound D, diammonium salt]"
  Tgt: "obese female Zucker rats"
  change in vivo at 100 mg/kg / %: -22
- Compound: "CC(C)(CO)CCCCOC(=O)CCCCC(C)(C)CO"
  Tgt: "obese female Zucker rats"
  change in vivo at 100 mg/kg / %: 43
- Compound: "CC(C)(CCCCOCCCCC(C)(C)COP(=O)(O)O)COP(=O)(O)O.N.N.N.N"
  Tgt: "obese female Zucker rats"
  change in vivo at 100 mg/kg / %: -53
- Compound: "CC(C)(CCCCCC(=O)CCCCCC(C)(C)COP(=O)(O)O)COP(=O)(O)O.N.N [Compound E, Diammonium Salt]"
  Tgt: "obese female Zucker rats"
  change in vivo at 100 mg/kg / %: -40
- Compound: "CC(C)(CO)CCCCNC(=O)OCCCCC(C)(C)CO"
  Tgt: "obese female Zucker rats"
  change in vivo at 100 mg/kg / %: -53

* * *

Quick list: change in vivo at 30 mg/kg/day per entry.
# Test system: obese female Zucker rats
# Test description: Oral daily treatment of obese female Zucker rats for 14 days (body weight, serum lipids, glucose, insulin)
# Type: in vivo, rat
# Conditions: Rattus norvegicus, 336 h; obese female Zucker rats, oral daily, fourteen days, 30 mg/kg/day; read-out: % wt. gain
Readout name: change in vivo at 30 mg/kg/day (%)

- Compound: "CC(C)(CCCCOCCCCC(C)(C)COP(=O)(O)O)COP(=O)(O)O.N.N.N.N"
  Readout name: "change in vivo at 30 mg/kg/day"
  Meas value: 3
- Compound: "CC(C)(CCCCCCOCCCCCCC(C)(C)COP(=O)(O)O)COP(=O)(O)O"
  Readout name: "change in vivo at 30 mg/kg/day"
  Meas value: 13
- Compound: "CC(C)(CO)CCCCNC(=O)CCCCC(C)(C)CO"
  Readout name: "change in vivo at 30 mg/kg/day"
  Meas value: 11
- Compound: "CC(C)(CCCCCC(=O)CCCCCC(C)(C)COP(=O)(O)O)COP(=O)(O)O.N.N [Compound E, Diammonium Salt]"
  Readout name: "change in vivo at 30 mg/kg/day"
  Meas value: 10
- Compound: "CC(C)(CCCCC(=O)CCCCC(C)(C)COP(=O)(O)O)COP(=O)(O)O.N.N [Compound D, diammonium salt]"
  Readout name: "change in vivo at 30 mg/kg/day"
  Meas value: 9

* * *

# Test system: obese female Zucker rats
# Test description: Oral daily treatment of obese female Zucker rats for 14 days (body weight, serum lipids, glucose, insulin)
# Type: in vivo, rat
# Conditions: Rattus norvegicus, 336 h; obese female Zucker rats, oral daily, fourteen days, 100 mg/kg/day; read-out: TC, Percent Change from Pre-treatment
Lab note: compare change in vivo at 100 mg/kg with 70%, writing yes (1) if less and no (0) if equal or more.

- Compound: "CC(C)(CCCCOCCCCC(C)(C)COP(=O)(O)O)COP(=O)(O)O.N.N.N.N [Compound A]"
  Answer label: "no (0)"
- Compound: "CC(C)(CO)CCCCOC(=O)CCCCC(C)(C)CO [Compound K]"
  Answer label: "yes (1)"
- Compound: "CC(C)(CCCCCC(=O)CCCCCC(C)(C)COP(=O)(O)O)COP(=O)(O)O.N.N [Compound E, Diammonium Salt]"
  Answer label: "no (0)"
- Compound: "CC(C)(CCCCC(=O)CCCCC(C)(C)COP(=O)(O)O)COP(=O)(O)O.N.N [Compound D, diammonium salt]"
  Answer label: "yes (1)"

* * *

Readout name: melting point

- Chem smiles: "CC(C)(CO)CCCCN(O)CCCCC(C)(C)CO"
  Meas value: "73 °C"
- Chem smiles: "CC(C)(CCCCC(=O)CCCCC(C)(C)COP(=O)(O)O)COP(=O)(O)O.N.N"
  Meas value: "191 to 193 °C"
- Chem smiles: "CC(C)(CCCCOCCCCC(C)(C)COP(=O)(O)O)COP(=O)(O)O.N.N.N.N"
  Meas value: "185 to 186 °C"
- Chem smiles: "CC(C)(CCCCCC(=O)CCCCCC(C)(C)COP(=O)(O)O)COP(=O)(O)O.N.N"
  Meas value: "187 to 189 °C"
- Chem smiles: "CC(=O)C(CCCCC(C)(C)CO)CCCCC(C)(C)CO"
  Meas value: "178 to 180 °C"

* * *

# System: obese female Zucker rats
# Test description: Oral daily treatment of obese female Zucker rats for 14 days (body weight, serum lipids, glucose, insulin)
# Assay type: in vivo, rat
# Conditions: Rattus norvegicus, 336 h; obese female Zucker rats, oral daily, fourteen days, 30 mg/kg/day; read-out: NEFA, Percent Change from Pre-treatment
Could you please mark TRUE for values of change in vivo at 30 mg/kg below -30% and FALSE for values at or above it?

- Compound: "CC(C)(CCCCCC(=O)CCCCCC(C)(C)COP(=O)(O)O)COP(=O)(O)O.N.N [Compound E, Diammonium Salt]"
  Answer label: "FALSE"
- Compound: "CC(C)(CCCCOCCCCC(C)(C)COP(=O)(O)O)COP(=O)(O)O.N.N.N.N"
  Answer label: "TRUE"
- Compound: "CC(C)(CCCCC(=O)CCCCC(C)(C)COP(=O)(O)O)COP(=O)(O)O.N.N [Compound D, diammonium salt]"
  Answer label: "FALSE"
- Compound: "CC(C)(CCCCCCOCCCCCCC(C)(C)COP(=O)(O)O)COP(=O)(O)O"
  Answer label: "TRUE"
- Compound: "CC(C)(CO)CCCCNC(=O)CCCCC(C)(C)CO"
  Answer label: "TRUE"

* * *

# Tested on: obese female Zucker rats
# Test description: Oral daily treatment of obese female Zucker rats for 14 days (body weight, serum lipids, glucose, insulin)
# Assay type: in vivo, rat
# Conditions: Rattus norvegicus, 336 h; obese female Zucker rats, oral daily, fourteen days, 30 mg/kg/day; read-out: Non HDL-C, Percent Change from Pre-treatment
change in vivo at 30 mg/kg listing for selected compounds.
Readout name: change in vivo at 30 mg/kg (%)

- Compound: "CC(C)(CCCCOCCCCC(C)(C)COP(=O)(O)O)COP(=O)(O)O.N.N.N.N"
  Tgt: "obese female Zucker rats"
  Meas value: 71
- Compound: "CC(C)(CCCCC(=O)CCCCC(C)(C)COP(=O)(O)O)COP(=O)(O)O.N.N [Compound D, diammonium salt]"
  Tgt: "obese female Zucker rats"
  Meas value: 22
- Compound: "CC(C)(CCCCCCOCCCCCCC(C)(C)COP(=O)(O)O)COP(=O)(O)O"
  Tgt: "obese female Zucker rats"
  Meas value: 52
- Compound: "CC(C)(CCCCCC(=O)CCCCCC(C)(C)COP(=O)(O)O)COP(=O)(O)O.N.N [Compound E, Diammonium Salt]"
  Tgt: "obese female Zucker rats"
  Meas value: 51
- Compound: "CC(C)(CO)CCCCNC(=O)CCCCC(C)(C)CO"
  Tgt: "obese female Zucker rats"
  Meas value: -7
